Biological target: MAJIN Core;TERB2 C (human;human) (UniProt Q3KP22+Q8NHR7)
Sequence (Q3KP22 whole entry, chain 1 of 2): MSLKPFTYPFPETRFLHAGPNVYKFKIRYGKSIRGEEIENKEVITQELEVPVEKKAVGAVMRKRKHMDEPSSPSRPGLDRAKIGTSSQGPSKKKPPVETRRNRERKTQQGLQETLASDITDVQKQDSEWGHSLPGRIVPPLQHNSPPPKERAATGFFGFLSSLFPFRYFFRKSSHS
Sequence (Q8NHR7 168-220, chain 2 of 2): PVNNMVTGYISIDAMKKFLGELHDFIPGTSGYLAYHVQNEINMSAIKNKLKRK
Test: EMSA
Details: apparent, Hill fit; EMSA: 20 mM Tris pH 8.0, 250 mM KCl, 1 h at 4 °C, 3% glycerol, 0.5% agarose in 0.5x TBE; 25 nM FAM-DNA for Kd (protein as oligomer), 0.3 uM DNA for display
Quantity Name: Kd (nM)

1) TTCCAGGGTTCCATGGAGATAAAGGTCAATAAATTAGAGTTAGAACTAGAAAGTGCCAAACAGAAATTTGGAGAAATCACAGACACCTATCAGAAAGAAATTGAGGACAAAAAGATATCAGAATAATAACCATGGATATCGAATT (double strand) [FAM random dsDNA (145 bp)]; 550
2) TTTTTTTTTTTTTTTTTTTTTTTTTTTTTTTTTTTTTTTTTTTTTTTTTTTTTTTTTTTTTTTTTTTTTTTTTTTTTTTTTTTTTTTTTTTTTTTTTTTT [Poly(dT) (100 nt)]; 510
3) TTAGGGTTAGGGTTAGGGTTAGGGTTAGGGTTAGGGTTAGGGTTAGGGTTAGGGCGACGACCCTAACCCTAACCCTAACCCTAACCCTAACCCTAACCCTAACCCTAACCCTAA [Telomeric hairpin DNA (54 bp)]; 610
4) AATTCTCATTTTACTTACCGGACGCTATTAGCAGTGGCAGATTGTACTGAGAGTGCACCATATGCGGTGTGAAATACCGCACAGATGCGT [Random ssDNA (90 nt)]; 900
